# SYSTEM_NAME: Rho-associated protein kinase 2 (Homo sapiens)
# Sequence (O75116 whole entry): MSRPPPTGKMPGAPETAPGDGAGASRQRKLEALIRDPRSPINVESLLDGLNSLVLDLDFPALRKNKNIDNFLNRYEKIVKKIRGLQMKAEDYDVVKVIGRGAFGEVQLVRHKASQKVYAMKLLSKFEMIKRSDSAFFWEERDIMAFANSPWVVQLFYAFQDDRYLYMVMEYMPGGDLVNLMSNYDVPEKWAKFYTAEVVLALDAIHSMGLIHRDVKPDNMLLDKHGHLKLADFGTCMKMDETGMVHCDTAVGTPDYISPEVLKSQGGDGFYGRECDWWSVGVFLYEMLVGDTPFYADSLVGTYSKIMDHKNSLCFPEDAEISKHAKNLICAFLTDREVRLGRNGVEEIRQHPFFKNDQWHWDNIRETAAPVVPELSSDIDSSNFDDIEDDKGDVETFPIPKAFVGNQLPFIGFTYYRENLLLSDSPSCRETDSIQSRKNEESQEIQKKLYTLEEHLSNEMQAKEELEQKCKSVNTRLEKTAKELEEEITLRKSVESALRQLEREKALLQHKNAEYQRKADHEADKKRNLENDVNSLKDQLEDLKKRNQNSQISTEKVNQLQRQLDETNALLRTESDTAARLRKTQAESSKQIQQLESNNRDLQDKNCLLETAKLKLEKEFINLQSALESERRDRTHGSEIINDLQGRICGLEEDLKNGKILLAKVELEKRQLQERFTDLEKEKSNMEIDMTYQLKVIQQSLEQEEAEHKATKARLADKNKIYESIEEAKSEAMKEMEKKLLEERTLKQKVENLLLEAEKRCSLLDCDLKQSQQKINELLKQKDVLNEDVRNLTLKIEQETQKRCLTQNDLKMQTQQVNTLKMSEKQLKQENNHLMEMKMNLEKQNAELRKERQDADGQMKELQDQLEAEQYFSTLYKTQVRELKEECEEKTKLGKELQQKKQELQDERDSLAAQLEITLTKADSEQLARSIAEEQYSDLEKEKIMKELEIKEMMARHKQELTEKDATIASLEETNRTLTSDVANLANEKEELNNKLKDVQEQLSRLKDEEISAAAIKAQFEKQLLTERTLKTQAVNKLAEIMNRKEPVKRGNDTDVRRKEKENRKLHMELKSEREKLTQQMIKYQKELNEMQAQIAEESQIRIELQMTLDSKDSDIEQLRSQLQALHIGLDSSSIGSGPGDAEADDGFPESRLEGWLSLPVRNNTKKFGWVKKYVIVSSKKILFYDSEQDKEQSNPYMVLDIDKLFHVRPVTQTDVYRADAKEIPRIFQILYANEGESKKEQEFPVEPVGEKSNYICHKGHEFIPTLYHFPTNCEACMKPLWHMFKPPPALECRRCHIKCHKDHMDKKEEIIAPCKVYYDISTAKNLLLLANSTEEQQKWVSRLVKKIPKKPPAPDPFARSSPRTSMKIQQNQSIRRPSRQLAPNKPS
ENDPOINT_LABEL: IC50 (µM)
Write it as a number; the unit µM goes unstated.

C[C@H]1O[C@@H]2CC(=O)O[C@@H]2C2=C1C(=O)c1c(ccc([C@H]3C[C@@H](N(C)C)[C@H](O)[C@@H](C)O3)c1O)C2=O [LACTOQUINOMYCIN] :: 0.011

Kindly review the next compound as well.
Req: Recall the recorded IC50 for COC(=O)C[C@H]1OC(C)=C2C(=O)c3c(ccc([C@H]4C[C@@H](N(C)C)[C@H](O)[C@@H](C)O4)c3O)C(=O)C2=C1O with Rho-associated protein kinase 2 (Homo sapiens) and state it.
Resp: 9

====

Reported pIC50 is given for each of the following compounds.
# Tested on: PC-3
# PROCEDURE_TEXT: Cytotoxicity against human PC3 cells after 72 hrs by SRB assay
# Type: functional, cell-based
# MEASUREMENT_CONTEXT: PC-3, 72 h
Recall that pIC50 is obtained by taking minus log10 of the concentration measured in molar.

Some solved entries appear below for comparison.
C[C@H]1O[C@@H]2CC(=O)O[C@@H]2C2=C1C(=O)c1c(ccc([C@H]3C[C@@H](N(C)C)[C@H](O)[C@@H](C)O3)c1O)C2=O :: 7.82
COC(=O)C[C@H]1OC(C)=C2C(=O)c3c(ccc([C@H]4C[C@@H](N(C)C)[C@H](O)[C@@H](C)O4)c3O)C(=O)C2=C1O :: 4.72

Kindly review the next compound as well.
Req: Recall the recorded pIC50 for COC(=O)C[C@@H]1C[C@@]2(O)C(=O)c3ccc([C@H]4C[C@@H](N(C)C)[C@H](O)[C@@H](C)O4)c(O)c3C(=O)[C@]2(O)[C@@H](C)O1 with PC-3 and state it.
Resp: 4.80

====

Observed pIC50, system UniProt:O75116.
pIC50: −log10 of the molar value.

Some solved entries appear below for comparison.
C[C@H]1O[C@@H]2CC(=O)O[C@@H]2c2oc(=O)c3ccc([C@H]4C[C@@H](N(C)C)[C@H](O)[C@@H](C)O4)c(O)c3c(=O)c21 :: < 4.70
COC(=O)C[C@H]1O[C@H](C)c2c(oc(=O)c3ccc([C@H]4C[C@@H](N(C)C)[C@H](O)[C@@H](C)O4)c(O)c3c2=O)[C@H]1O :: < 4.70

Kindly review the next molecule as well.
Req: Param item = COC(=O)C[C@@H]1C[C@@]2(O)C(=O)c3ccc([C@H]4C[C@@H](N(C)C)[C@H](O)[C@@H](C)O4)c(O)c3C(=O)[C@]2(O)[C@@H](C)O1 ; retrieve measured pIC50.
Resp: < 4.70

Numbers sourced from ChEMBL document CHEMBL4196207.
